Target: GABARAPL1 (Homo sapiens)
Construct: insertion of full-length human GABARAP, GABARAP-L1, LC3A, and LC3C, and EcoRI and NotI restrictions sites for cloning of LC3B and GABARAP-L2; GST (followed by 3C protease site) (N); made in house; host or cells: bacteria (E. coli BL21 (DE3) pLysS is stated for the GST-ATG8 proteins of the overlay assay)
Sequence (Q9H0R8 whole entry): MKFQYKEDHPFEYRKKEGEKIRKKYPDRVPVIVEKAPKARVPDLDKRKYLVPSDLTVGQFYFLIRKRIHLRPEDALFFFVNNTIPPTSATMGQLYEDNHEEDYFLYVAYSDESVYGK
Test: BLI, LIR peptide binding to GABARAPL1
Details: Fig. 4c, fit of response vs GABARAPL1 concentration, n=2 independent experiments, read-out: Kd (best-fit value)
pKd: −log10 of the molar value. Ends that are not written are not given here.
Binary call on pKd: TRUE from 6 upward, FALSE beneath that.

For orientation, consider the following solved cases.
Sequence content | Label class
SQKSDEEDFDKVEDLPLKLTI [PCM1 V1956D] | FALSE
SQKSDEEDFVKVTDLPLKLTI [PCM1 E1959T] | FALSE

Shifting focus to the sequence that follows.
Prompt: pKd >= 6 for SQKSDEEDFVIVEDLPLKLTI [PCM1 K1967I] ?
Response: TRUE
